Entry source: the kinase profiling compilation of Christmann-Franck et al. (2016)

# tested.on: MAPK9 (human) (UniProt P45984)
# Sequence (P45984 whole entry, looked up): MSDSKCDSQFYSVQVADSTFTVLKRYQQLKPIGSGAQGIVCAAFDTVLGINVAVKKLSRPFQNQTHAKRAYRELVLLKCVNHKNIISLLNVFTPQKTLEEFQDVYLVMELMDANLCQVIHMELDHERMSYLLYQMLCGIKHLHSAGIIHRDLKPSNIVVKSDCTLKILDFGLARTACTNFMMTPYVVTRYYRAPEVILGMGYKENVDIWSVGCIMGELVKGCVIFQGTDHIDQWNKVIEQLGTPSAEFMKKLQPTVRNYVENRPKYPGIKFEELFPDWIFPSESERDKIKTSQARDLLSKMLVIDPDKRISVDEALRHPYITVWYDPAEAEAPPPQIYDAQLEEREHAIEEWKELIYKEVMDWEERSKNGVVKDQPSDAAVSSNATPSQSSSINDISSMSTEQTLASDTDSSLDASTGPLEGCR
# protocol.text: radiometric filter-binding kinase assay, Kinase HotSpot
# experimental.setup: compound 0.5 µM; ATP 10 µM
observable: residual activity (%)
Report the figure in % without appending any unit label.

Below, each entry is followed by its recorded residual activity result.
entry.smiles: Cn1cc(/C=C2\C(=O)Nc3ccc(S(N)(=O)=O)cc32)c2ccccc21
residual activity / %: 93.8

entry.smiles: O=c1[nH]c2ccccc2n1C1CCN(Cc2ccc(-c3nc4cc5[nH]cnc5cc4nc3-c3ccccc3)cc2)CC1
residual activity / %: 91.9

entry.smiles: COc1cc2ncnc(Nc3ccc(O)c(Br)c3)c2cc1OC
residual activity / %: 88.4

Query: Please report the recorded residual activity for Nc1ncnc2c1cnn2-c1ccccc1 .
Result: 88.2

Query: Try this compound too: CCOc1cc2ncnc(Nc3cccc(Br)c3)c2cc1OCC
Result: 98.5

Query: Check O=S(=O)(NCCNC/C=C/c1ccc(Br)cc1)c1cccc2cnccc12 too.
Result: 93.4

Query: Another compound: Cc1cc(Nc2nc(-c3ccccc3)nc3ccccc23)n[nH]1
Result: 92.4

Query: Now the compound O=C1NC(=O)c2cc(Nc3ccc(F)cc3)c(Nc3ccc(F)cc3)cc21
Result: 61.4

Query: Param item: N#CCCc1ccc2c(c1)-c1[nH]c3ccc([N+](=O)[O-])cc3c1CC(=O)N2
Result: 97.1

Query: Here is the next compound: COc1cc2c(Nc3ccc(Br)cc3F)ncnc2cc1OCC1CCN(C)CC1
Result: 96.4

Query: And N/C(=N\N=C/c1ccc(-c2cccc([N+](=O)[O-])c2)o1)N[N+](=O)[O-] ?
Result: 111
